FYI, the data here is from ChEMBL document CHEMBL5370627.

- Experimental Target: Transcriptional enhancer factor TEF-4 (Homo sapiens, UniProt Q15562)
- Sequence (Q15562 whole entry): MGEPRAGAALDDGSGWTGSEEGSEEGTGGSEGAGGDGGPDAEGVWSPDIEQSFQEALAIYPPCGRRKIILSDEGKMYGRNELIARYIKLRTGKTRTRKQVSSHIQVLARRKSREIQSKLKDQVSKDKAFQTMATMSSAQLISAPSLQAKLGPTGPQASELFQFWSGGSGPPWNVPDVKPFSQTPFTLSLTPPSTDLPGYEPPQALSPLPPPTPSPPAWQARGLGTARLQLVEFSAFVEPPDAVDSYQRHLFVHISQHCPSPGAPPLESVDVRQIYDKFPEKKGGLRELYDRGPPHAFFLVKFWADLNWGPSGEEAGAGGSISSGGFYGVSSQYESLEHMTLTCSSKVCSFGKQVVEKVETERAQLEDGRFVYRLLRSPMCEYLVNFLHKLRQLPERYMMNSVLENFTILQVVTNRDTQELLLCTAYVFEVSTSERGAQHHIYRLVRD
Quantity Kind: IC50 (nM)

| Structure Smiles | Recorded Number |
| --- | --- |
| C#Cc1ccnc2c1c(C1CN(C(=O)C=C)C1)nn2-c1ccc(OC(F)(F)F)cc1 | 2 |
